Ref: patent US20190233498A1

- targetOrTestSystem: T1, human PACAP38 (human, not fully specified; C-terminal lysine is amidated; N-terminal or C-terminal biotin in the HTRF and PC-12 cell binding assays)
- T1 peptide: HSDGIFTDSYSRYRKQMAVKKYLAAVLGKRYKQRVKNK
- protocolSummary: cell-based or functional assay
attributeMeasured: IC50, 1 nM PACAP38-induced human VPAC2-R mediated cAMP increase (nM)

anti-PACAP antibody Ab13 (antibody, human IgG1, kappa, N297A, V domains shown, full-length rabbit/human chimeric antibody) VH: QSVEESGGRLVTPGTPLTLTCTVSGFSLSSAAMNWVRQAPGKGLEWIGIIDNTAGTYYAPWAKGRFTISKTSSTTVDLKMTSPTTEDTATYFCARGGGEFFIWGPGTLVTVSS VL: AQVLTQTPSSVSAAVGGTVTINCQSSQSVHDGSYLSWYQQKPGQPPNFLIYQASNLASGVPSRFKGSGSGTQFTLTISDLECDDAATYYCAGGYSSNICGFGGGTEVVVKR ... 0.652
